Entry source: patent US20160046618A1

- targetUnderTest: Recombinant Cat D (Homo sapiens (Human))
- Sequence (P07339 65-412): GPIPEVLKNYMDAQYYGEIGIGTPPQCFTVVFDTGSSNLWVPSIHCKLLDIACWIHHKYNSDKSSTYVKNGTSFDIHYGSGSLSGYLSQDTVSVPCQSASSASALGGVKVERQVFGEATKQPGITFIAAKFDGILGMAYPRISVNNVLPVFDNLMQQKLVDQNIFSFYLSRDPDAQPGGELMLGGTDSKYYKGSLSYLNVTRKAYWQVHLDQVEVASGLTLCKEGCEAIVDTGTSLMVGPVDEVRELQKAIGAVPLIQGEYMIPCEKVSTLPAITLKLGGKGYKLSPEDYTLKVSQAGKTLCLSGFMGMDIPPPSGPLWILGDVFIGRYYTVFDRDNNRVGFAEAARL
- assayOverview: In vitro enzymatic Cathepsin D (Cat D) FRET assay
- Format: biochemical
- measurementSetup: read-out: IC50 IP (μM) CatD
measure: IC50 (µM)

- C#CCOc1cnc(C(=O)Nc2cc(F)c(F)c([C@@]3(C)N=C(N)S[C@@]4(C(N)=O)C[C@H]43)c2)cn1 [Example 919]: 21.2
- CC(C)NC(=O)c1cnc2c(Nc3cnc(F)c([C@@]4(C)N=C(N)S[C@@]5(C(F)F)C[C@@H]45)c3)nccc2c1 [Example 656]: 998
- C[C@H](Oc1cnc2c(Nc3cc(F)c(F)c([C@@]4(C)N=C(N)S[C@@]5(C(=O)N6CCCC6)C[C@H]54)c3)nccc2n1)c1ncco1 [Example 938]: 162
- CNC(=O)[C@]12C[C@H]1[C@@](C)(c1cc(NC(=O)c3cnc(OCC(F)(F)C(F)F)cn3)cc(F)c1F)N=C(N)S2 [Example 963]: 267
